- TEST SUMMARY: Cytotoxicity against mouse 3T3 cells
- Type: cell-based
- CONDITION CONTEXT: BALB/3T3 clone A31 cells
# maps each entry to its GI50
MEASUREMENT KIND: GI50 (µM)

C/C=C1/C(=O)O[C@]23C=C[C@@H]4C(C(=O)OC)=CO[C@H](O[C@@H]12)[C@@H]43 [PLUMERICIN] = 431
CC(C)=CCC[C@](C)(O)[C@H]1CC=C(C)CC1 = 54.7
C[C@H](C/C=C\C(C)(C)OO)[C@H]1CC[C@@]2(C)[C@@H]3CC[C@H]4C(C)(C)[C@@H](O)CC[C@@]45C[C@@]35CC[C@]12C = 82.6
C=CCOc1cc(OC)c(C(=O)/C=C/c2ccc(OC)cc2)c(OCC=C)c1 = 107
COC(=O)C1=CO[C@H](C)[C@@H]2CN3CC[C@@]4(C(=O)Nc5ccccc54)[C@H]3C[C@@H]12 [UNCARINE E] = 62.4
COc1ccc(CCC(=O)c2c(O)cc(O)cc2OC)cc1 = 141

* * *

- Tested on: MCF7
- TEST SUMMARY: Cytotoxicity against human MCF7 cells
- Assay type: functional
Each entry below carries its recorded GI50.
MEASUREMENT KIND: GI50 (µM)

COc1ccc(CCC(=O)c2c(O)cc(O)cc2OC)cc1 = 75.7
CC(C)=CCC[C@](C)(O)[C@H]1CC=C(C)CC1 = 30
C=CCOc1cc(OC)c(C(=O)/C=C/c2ccc(OC)cc2)c(OCC=C)c1 = 51

# credit: ChEMBL document CHEMBL1152311
